Test system: SK-MES-1
RUN DESCRIPTION: relative viability (nuclei count vs DMSO), 5 days (fraction); higher = more cells survive
CONDITION DESCRIPTION: first compound 1.265 µM
Quick rule for you: relative viability under 0.7 gets satisfied, anything else gets not satisfied.

Example results:
| COMPOUND | ASSIGNED CLASS |
| --- | --- |
| O=C(O)c1ccc(-c2c[nH]c3ncc(-c4ccccc4)cc23)cc1C1CCCC1 + O=C(c1cc(Cc2n[nH]c(=O)c3ccccc23)ccc1F)N1CCN(C(=O)C2CC2)CC1 [Olaparib] (partner 8 µM) | satisfied |
| O=C(O)c1ccc(-c2c[nH]c3ncc(-c4ccccc4)cc23)cc1C1CCCC1 + CC1(C)CCC(c2ccc(Cl)cc2)=C(CN2CCN(c3ccc(C(=O)NS(=O)(=O)c4ccc(N[C@H](CCN5CCOCC5)CSc5ccccc5)c(S(=O)(=O)C(F)(F)F)c4)cc3)CC2)C1 [Navitoclax] (partner 0.5 µM) | not satisfied |
| O=C(O)c1ccc(-c2c[nH]c3ncc(-c4ccccc4)cc23)cc1C1CCCC1 + CS(=O)(=O)CCNCc1ccc(-c2ccc3ncnc(Nc4ccc(OCc5cccc(F)c5)c(Cl)c4)c3c2)o1 [Lapatinib] (partner 2 µM) | satisfied |

Q: I'd appreciate it if you could check whether O=C(O)c1ccc(-c2c[nH]c3ncc(-c4ccccc4)cc23)cc1C1CCCC1 + C[C@@H](Oc1cc(-c2cnn(C3CCNCC3)c2)cnc1N)c1c(Cl)ccc(F)c1Cl [Crizotinib] (partner 1 µM) has relative viability smaller than 0.7.
A: not satisfied

Q: I'd appreciate it if you could check whether O=C(O)c1ccc(-c2c[nH]c3ncc(-c4ccccc4)cc23)cc1C1CCCC1 + CS(=O)(=O)N1CCN(Cc2cc3nc(-c4cccc5[nH]ncc45)nc(N4CCOCC4)c3s2)CC1 [Pictilisib] (partner 1 µM) has relative viability smaller than 0.7.
A: satisfied

Q: I'd appreciate it if you could check whether O=C(O)c1ccc(-c2c[nH]c3ncc(-c4ccccc4)cc23)cc1C1CCCC1 + Nc1nc2[nH]cc(CCc3ccc(C(=O)N[C@@H](CCC(=O)O)C(=O)O)cc3)c2c(=O)[nH]1 [Pemetrexed] (partner 0.2 µM) has relative viability smaller than 0.7.
A: not satisfied

====

Test system: NCI-H2087
RUN DESCRIPTION: relative viability (nuclei count vs DMSO), 5 days (fraction); higher = more cells survive
CONDITION DESCRIPTION: first compound 1 µM
Quick rule for you: relative viability under 0.5 gets Criterion met, anything else gets Criterion not met.

Example results:
| MOLECULE | ASSIGNED CLASS |
| --- | --- |
| NC(=O)Nc1cc(-c2cccc(F)c2)sc1C(=O)N[C@H]1CCCNC1 [AZD7762] + C[C@]1(O)C[C@@H](c2nc(-c3ccc4ccc(-c5ccccc5)nc4c3)c3c(N)nccn32)C1 [Linsitinib] (partner 1 µM) | Criterion not met |
| NC(=O)Nc1cc(-c2cccc(F)c2)sc1C(=O)N[C@H]1CCCNC1 [AZD7762] + CC(=O)Nc1cccc(-n2c(=O)n(C3CC3)c(=O)c3c(Nc4ccc(I)cc4F)n(C)c(=O)c(C)c32)c1 [Trametinib] (partner 0.02 µM) | Criterion met |
| NC(=O)Nc1cc(-c2cccc(F)c2)sc1C(=O)N[C@H]1CCCNC1 [AZD7762] + Nc1ncn([C@H]2C[C@H](O)[C@@H](CO)O2)c(=O)n1 [Decitabine] (partner 2 µM) | Criterion met |
| NC(=O)Nc1cc(-c2cccc(F)c2)sc1C(=O)N[C@H]1CCCNC1 [AZD7762] + Cc1nc(Nc2ncc(C(=O)Nc3c(C)cccc3Cl)s2)cc(N2CCN(CCO)CC2)n1 [Dasatinib] (partner 0.075 µM) | Criterion not met |
| NC(=O)Nc1cc(-c2cccc(F)c2)sc1C(=O)N[C@H]1CCCNC1 [AZD7762] + CC1(C)CCC(c2ccc(Cl)cc2)=C(CN2CCN(c3ccc(C(=O)NS(=O)(=O)c4ccc(N[C@H](CCN5CCOCC5)CSc5ccccc5)c(S(=O)(=O)C(F)(F)F)c4)cc3)CC2)C1 [Navitoclax] (partner 0.5 µM) | Criterion not met |
| NC(=O)Nc1cc(-c2cccc(F)c2)sc1C(=O)N[C@H]1CCCNC1 [AZD7762] + O=C(c1cc(Cc2n[nH]c(=O)c3ccccc23)ccc1F)N1CCN(C(=O)C2CC2)CC1 [Olaparib] (partner 8 µM) | Criterion not met |

In the following, a different molecule is considered.
Q: I'd appreciate it if you could check whether NC(=O)Nc1cc(-c2cccc(F)c2)sc1C(=O)N[C@H]1CCCNC1 [AZD7762] + Cc1nc(NC(=O)N2CCC[C@H]2C(N)=O)sc1-c1ccnc(C(C)(C)C(F)(F)F)c1 [Alpelisib] (partner 2 µM) has relative viability smaller than 0.5.
A: Criterion not met

====

This section presents compounds with their documented relative viability values.
Test system: NCI-H1355
RUN DESCRIPTION: relative viability (nuclei count vs DMSO), 5 days (fraction); higher = more cells survive
CONDITION DESCRIPTION: first compound 2.53 µM

Completed entries (count: 2):
| COMPOUND | TGT | relative viability |
| --- | --- | --- |
| C=C1C(=O)O[C@@H](CCCCCCCC)[C@@H]1C(=O)O [C-75] + CC(=O)c1c(C)c2cnc(Nc3ccc(N4CCNCC4)cn3)nc2n(C2CCCC2)c1=O [Palbociclib] (partner 0.5 µM) | NCI-H1355 | 0.364 |
| C=C1C(=O)O[C@@H](CCCCCCCC)[C@@H]1C(=O)O [C-75] + O=C(CCCCCCC(=O)Nc1ccccc1)NO [Vorinostat] (partner 1 µM) | NCI-H1355 | 0.52 |

With those in mind, consider the next compound.
Q: Hi! What's the reported relative viability for Oc1nc(-c2ccc(C(F)(F)F)cc2)nc2c1CSCC2 [XAV939] + Cc1nc(Nc2ncc(C(=O)Nc3c(C)cccc3Cl)s2)cc(N2CCN(CCO)CC2)n1 [Dasatinib] (partner 0.075 µM) on NCI-H1355?
A: 0.356

====

System: NCI-H1755
RUN DESCRIPTION: relative viability (nuclei count vs DMSO), 5 days (fraction); higher = more cells survive
CONDITION DESCRIPTION: first compound 0.5 µM
This section presents compounds with their documented relative viability values.

| COMPOUND | OBSERVED |
| --- | --- |
| CC1(C)CCC(c2ccc(Cl)cc2)=C(CN2CCN(c3ccc(C(=O)NS(=O)(=O)c4ccc(N[C@H](CCN5CCOCC5)CSc5ccccc5)c(S(=O)(=O)C(F)(F)F)c4)cc3)CC2)C1 [Navitoclax] + CCNC(=O)c1noc(-c2cc(C(C)C)c(O)cc2O)c1-c1ccc(CN2CCOCC2)cc1 [Luminespib] (partner 0.01 µM) | 0.426 |
| CC1(C)CCC(c2ccc(Cl)cc2)=C(CN2CCN(c3ccc(C(=O)NS(=O)(=O)c4ccc(N[C@H](CCN5CCOCC5)CSc5ccccc5)c(S(=O)(=O)C(F)(F)F)c4)cc3)CC2)C1 [Navitoclax] + Cc1cc(Nc2cc(N3CCN(C)CC3)nc(Sc3ccc(NC(=O)C4CC4)cc3)n2)n[nH]1 [Tozasertib] (partner 0.1 µM) | 0.527 |
| CC1(C)CCC(c2ccc(Cl)cc2)=C(CN2CCN(c3ccc(C(=O)NS(=O)(=O)c4ccc(N[C@H](CCN5CCOCC5)CSc5ccccc5)c(S(=O)(=O)C(F)(F)F)c4)cc3)CC2)C1 [Navitoclax] + CC(=O)c1c(C)c2cnc(Nc3ccc(N4CCNCC4)cn3)nc2n(C2CCCC2)c1=O [Palbociclib] (partner 0.5 µM) | 0.488 |
| CC1(C)CCC(c2ccc(Cl)cc2)=C(CN2CCN(c3ccc(C(=O)NS(=O)(=O)c4ccc(N[C@H](CCN5CCOCC5)CSc5ccccc5)c(S(=O)(=O)C(F)(F)F)c4)cc3)CC2)C1 [Navitoclax] + COc1cc2c(Oc3ccc(NC(=O)C4(C(=O)Nc5ccc(F)cc5)CC4)cc3F)ccnc2cc1OCCCN1CCOCC1 [Foretinib] (partner 0.25 µM) | 0.855 |
| CC1(C)CCC(c2ccc(Cl)cc2)=C(CN2CCN(c3ccc(C(=O)NS(=O)(=O)c4ccc(N[C@H](CCN5CCOCC5)CSc5ccccc5)c(S(=O)(=O)C(F)(F)F)c4)cc3)CC2)C1 [Navitoclax] + N=C(N)NC(=N)NCCc1ccccc1 [Phenformin] (partner 250 µM) | 0.43 |

Q: Hi! What's the reported relative viability for CC1(C)CCC(c2ccc(Cl)cc2)=C(CN2CCN(c3ccc(C(=O)NS(=O)(=O)c4ccc(N[C@H](CCN5CCOCC5)CSc5ccccc5)c(S(=O)(=O)C(F)(F)F)c4)cc3)CC2)C1 [Navitoclax] + C[C@]1(O)C[C@@H](c2nc(-c3ccc4ccc(-c5ccccc5)nc4c3)c3c(N)nccn32)C1 [Linsitinib] (partner 1 µM) on NCI-H1755?
A: 1.02

Q: Hi! What's the reported relative viability for CC1(C)CCC(c2ccc(Cl)cc2)=C(CN2CCN(c3ccc(C(=O)NS(=O)(=O)c4ccc(N[C@H](CCN5CCOCC5)CSc5ccccc5)c(S(=O)(=O)C(F)(F)F)c4)cc3)CC2)C1 [Navitoclax] + NC(=O)Nc1cc(-c2cccc(F)c2)sc1C(=O)N[C@H]1CCCNC1 [AZD7762] (partner 0.2 µM) on NCI-H1755?
A: 0.474
